Test: In vivo formation of NAFB1 and NAHFB1 in rat kidney and liver (HPLC-ESI-MS/MS)
Design: unit not given here
Details: Kidney; treatment HFB1 1 mg/kg BW ip, 5 days
Listed here are molecules together with their documented N-acyl-derivative in tissue sample, analysis b.

// known answers, use as guide
CCCCCCCCCCCCCCCCCC(=O)NC(C)C(O)CC(O)CCCCC(O)CC(C)CC(OC(=O)CC(CC(=O)O)C(=O)O)C(OC(=O)CC(CC(=O)O)C(=O)O)C(C)CCCC (stereo not shown) [FB1C18:0]; 0,0
CCCCCCCCCCCCCCCCCCCCCC(=O)N[C@@H](C)[C@@H](O)C[C@H](O)CCCC[C@@H](O)C[C@H](C)C[C@H](O)[C@H](O)[C@H](C)CCCC [HFB1C22:0]; 4,3
CCCCCCCCCCCCCCCCCCCCCCCC(=O)N[C@@H](C)[C@@H](O)C[C@H](O)CCCC[C@@H](O)C[C@H](C)C[C@H](O)[C@H](O)[C@H](C)CCCC [HFB1C24:0]; 2,7
CCCCCCCCCCCCCCCCCCCCCC(=O)NC(C)C(O)CC(O)CCCCC(O)CC(C)CC(OC(=O)CC(CC(=O)O)C(=O)O)C(OC(=O)CC(CC(=O)O)C(=O)O)C(C)CCCC (stereo not shown) [FB1C22:0]; 0,0
CCCCCCCCC=CCCCCCCCCCCCCCC(=O)NC(C)C(O)CC(O)CCCCC(O)CC(C)CC(OC(=O)CC(CC(=O)O)C(=O)O)C(OC(=O)CC(CC(=O)O)C(=O)O)C(C)CCCC (stereo not shown) [FB1C24:1]; 0,0
CCCCCCCCCCCCCCCC(=O)NC(C)C(O)CC(O)CCCCC(O)CC(C)CC(OC(=O)CC(CC(=O)O)C(=O)O)C(OC(=O)CC(CC(=O)O)C(=O)O)C(C)CCCC (stereo not shown) [FB1C16:0]; 0,0

--- query ---
### Prompt Which measured N-acyl-derivative in tissue sample, analysis b value corresponds to CCCCCCCCCCCCCCCCCCCCCCCC(=O)NC(C)C(O)CC(O)CCCCC(O)CC(C)CC(OC(=O)CC(CC(=O)O)C(=O)O)C(OC(=O)CC(CC(=O)O)C(=O)O)C(C)CCCC (stereo not shown) [FB1C24:0] ?
### Response 0,0

###

Assay: In vivo formation of NAFB1 and NAHFB1 in rat kidney and liver (HPLC-ESI-MS/MS)
Parameters: unit not given here
Settings: Kidney; treatment HFB1 1 mg/kg BW ip, 5 days
attributeMeasured: N-acyl-derivative in tissue sample, analysis a

CCCCCCCCCCCCCCCC(=O)N[C@@H](C)[C@@H](O)C[C@H](O)CCCC[C@@H](O)C[C@H](C)C[C@H](O)[C@H](O)[C@H](C)CCCC; 22,7
CCCCCCCCCCCCCCCCCCCCCC(=O)NC(C)C(O)CC(O)CCCCC(O)CC(C)CC(OC(=O)CC(CC(=O)O)C(=O)O)C(OC(=O)CC(CC(=O)O)C(=O)O)C(C)CCCC (stereo not drawn); 0,0
CCCCCCCCCCCCCCCC(=O)NC(C)C(O)CC(O)CCCCC(O)CC(C)CC(OC(=O)CC(CC(=O)O)C(=O)O)C(OC(=O)CC(CC(=O)O)C(=O)O)C(C)CCCC (stereo not drawn); 0,0
CCCCCCCCCCCCCCCCCCCC(=O)N[C@@H](C)[C@@H](O)C[C@H](O)CCCC[C@@H](O)C[C@H](C)C[C@H](O)[C@H](O)[C@H](C)CCCC; 3,1
CCCCCCCCCCCCCCCCCCCC(=O)NC(C)C(O)CC(O)CCCCC(O)CC(C)CC(OC(=O)CC(CC(=O)O)C(=O)O)C(OC(=O)CC(CC(=O)O)C(=O)O)C(C)CCCC (stereo not drawn); 0,0

### Prompt Which measured N-acyl-derivative in tissue sample, analysis a value corresponds to CCCCCCCCCCCCCCCCCC(=O)N[C@@H](C)[C@@H](O)C[C@H](O)CCCC[C@@H](O)C[C@H](C)C[C@H](O)[C@H](O)[C@H](C)CCCC ?
### Response 2,6

### Prompt Which measured N-acyl-derivative in tissue sample, analysis a value corresponds to CCCCCCCCCCCCCCCCCCCCCC(=O)N[C@@H](C)[C@@H](O)C[C@H](O)CCCC[C@@H](O)C[C@H](C)C[C@H](O)[C@H](O)[C@H](C)CCCC ?
### Response 1,5

### Prompt Which measured N-acyl-derivative in tissue sample, analysis a value corresponds to CCCCCCCCCCCCCCCCCC(=O)NC(C)C(O)CC(O)CCCCC(O)CC(C)CC(OC(=O)CC(CC(=O)O)C(=O)O)C(OC(=O)CC(CC(=O)O)C(=O)O)C(C)CCCC (stereo not drawn) ?
### Response 0,0

### Prompt Which measured N-acyl-derivative in tissue sample, analysis a value corresponds to CCCCCCCCCCCCCCCCCCCCCCCC(=O)NC(C)C(O)CC(O)CCCCC(O)CC(C)CC(OC(=O)CC(CC(=O)O)C(=O)O)C(OC(=O)CC(CC(=O)O)C(=O)O)C(C)CCCC (stereo not drawn) ?
### Response 0,0

### Prompt Which measured N-acyl-derivative in tissue sample, analysis a value corresponds to CCCCCCCCC=CCCCCCCCCCCCCCC(=O)NC(C)C(O)CC(O)CCCCC(O)CC(C)CC(OC(=O)CC(CC(=O)O)C(=O)O)C(OC(=O)CC(CC(=O)O)C(=O)O)C(C)CCCC (stereo not drawn) ?
### Response 0,0

### Prompt Which measured N-acyl-derivative in tissue sample, analysis a value corresponds to CCCCCCCCCCCCCCCCCCCCCCCC(=O)N[C@@H](C)[C@@H](O)C[C@H](O)CCCC[C@@H](O)C[C@H](C)C[C@H](O)[C@H](O)[C@H](C)CCCC ?
### Response 3,0

### Prompt Which measured N-acyl-derivative in tissue sample, analysis a value corresponds to CCCCCCCC/C=C\CCCCCCCCCCCCCC(=O)N[C@@H](C)[C@@H](O)C[C@H](O)CCCC[C@@H](O)C[C@H](C)C[C@H](O)[C@H](O)[C@H](C)CCCC ?
### Response 7,9

###

Listed here are molecules together with their documented N-acyl-derivative in tissue sample, analysis b.
Assay: In vivo formation of NAFB1 and NAHFB1 in rat kidney and liver (HPLC-ESI-MS/MS)
Design: unit not given here
Details: Kidney; treatment FB1 1 mg/kg BW ip, 5 days
Excerpt: The study protocol was approved by the Institutional Animal Care and Use Committee, Richard B. Russell Agricultural Research Center, Athens, GA. […] In order to compare the effects of FB1 and HFB1, dosages will be expressed as molar concentrations and, on this basis, the high dose of FB1 is roughly equivalent to that of the positive control dose of HFB1. […]

// known answers, use as guide
CCCCCCCCCCCCCCCCCC(=O)NC(C)C(O)CC(O)CCCCC(O)CC(C)CC(OC(=O)CC(CC(=O)O)C(=O)O)C(OC(=O)CC(CC(=O)O)C(=O)O)C(C)CCCC (stereo not drawn) [FB1C18:0]; 3,1
CCCCCCCCCCCCCCCC(=O)NC(C)C(O)CC(O)CCCCC(O)CC(C)CC(OC(=O)CC(CC(=O)O)C(=O)O)C(OC(=O)CC(CC(=O)O)C(=O)O)C(C)CCCC (stereo not drawn) [FB1C16:0]; 12,6

### Prompt Which measured N-acyl-derivative in tissue sample, analysis b value corresponds to CCCCCCCCCCCCCCCCCCCC(=O)N[C@@H](C)[C@@H](O)C[C@H](O)CCCC[C@@H](O)C[C@H](C)C[C@H](O)[C@H](O)[C@H](C)CCCC [HFB1C20:0] ?
### Response 0,1

###

Assay: In vivo formation of NAFB1 and NAHFB1 in rat kidney and liver (HPLC-ESI-MS/MS)
Design: unit not given here
Conditions: Kidney; treatment FB1 1 mg/kg BW ip, 5 days
Listed here are molecules together with their documented N-acyl-derivative in tissue sample, mean.

CCCCCCCCCCCCCCCCCCCCCC(=O)N[C@@H](C)[C@@H](O)C[C@H](O)CCCC[C@@H](O)C[C@H](C)C[C@H](O)[C@H](O)[C@H](C)CCCC [HFB1C22:0]; 0,0

### Prompt Which measured N-acyl-derivative in tissue sample, mean value corresponds to CCCCCCCCCCCCCCCC(=O)NC(C)C(O)CC(O)CCCCC(O)CC(C)CC(OC(=O)CC(CC(=O)O)C(=O)O)C(OC(=O)CC(CC(=O)O)C(=O)O)C(C)CCCC (stereo not drawn) [FB1C16:0] ?
### Response 13,5

### Prompt Which measured N-acyl-derivative in tissue sample, mean value corresponds to CCCCCCCCCCCCCCCCCCCCCC(=O)NC(C)C(O)CC(O)CCCCC(O)CC(C)CC(OC(=O)CC(CC(=O)O)C(=O)O)C(OC(=O)CC(CC(=O)O)C(=O)O)C(C)CCCC (stereo not drawn) [FB1C22:0] ?
### Response 0,7

### Prompt Which measured N-acyl-derivative in tissue sample, mean value corresponds to CCCCCCCC/C=C\CCCCCCCCCCCCCC(=O)N[C@@H](C)[C@@H](O)C[C@H](O)CCCC[C@@H](O)C[C@H](C)C[C@H](O)[C@H](O)[C@H](C)CCCC [HFB1C24:1] ?
### Response 0,2

### Prompt Which measured N-acyl-derivative in tissue sample, mean value corresponds to CCCCCCCCCCCCCCCCCC(=O)NC(C)C(O)CC(O)CCCCC(O)CC(C)CC(OC(=O)CC(CC(=O)O)C(=O)O)C(OC(=O)CC(CC(=O)O)C(=O)O)C(C)CCCC (stereo not drawn) [FB1C18:0] ?
### Response 3,4

### Prompt Which measured N-acyl-derivative in tissue sample, mean value corresponds to CCCCCCCCCCCCCCCCCC(=O)N[C@@H](C)[C@@H](O)C[C@H](O)CCCC[C@@H](O)C[C@H](C)C[C@H](O)[C@H](O)[C@H](C)CCCC [HFB1C18:0] ?
### Response 0,1

### Prompt Which measured N-acyl-derivative in tissue sample, mean value corresponds to CCCCCCCCCCCCCCCCCCCCCCCC(=O)N[C@@H](C)[C@@H](O)C[C@H](O)CCCC[C@@H](O)C[C@H](C)C[C@H](O)[C@H](O)[C@H](C)CCCC [HFB1C24:0] ?
### Response 0,0
